The origin of these recorded values is patent US6646129B2.

- System: human non small cell lung cancer (NCI-H460) cell line
- Measurement notes: Inhibition of tumour cell proliferation in vitro, [3H]thymidine incorporation, NCI-H460
- Format: cell-based
- Details: NCI-H460 cells, 24 hours with compound, DNA synthesis by [3H]thymidine incorporation
Observation type: pIC50
The value called pIC50 is obtained by taking minus log10 of the concentration in mol/L.

// query Requested read-out: pIC50. Entry: N#CNC(=NCCCCCCCCCCCOC1CCCCO1)Nc1ccncc1 (stereo not shown) [Example No. 7]
// result 8.34
